- test: Solubilization of ketoconazole in concentrated POM polymer solution (visual check)
- Type: physicochemical
- measurement_setup: pH 7, aqueous with cosolvent or surfactant or cyclodextrin, thermodynamic from solid, sodium polyglutamate DP=100, 20% VE, 156 mg/ml; pH 7.0; ambient temperature; read-out: Total concentration of solubilized active ingredient
measured_parameter: solubility

# compound, measured_parameter, result_value
data = [
    ("CC(=O)N1CCN(c2ccc(OCC3COC(Cn4ccnc4)(c4ccc(Cl)cc4Cl)O3)cc2)CC1 (stereo not shown) [ketoconazole]", "solubility", "53.5 mM"),
]

* * *

- test: Solubilization of ketoconazole in concentrated POM polymer solution (visual check)
- Type: physicochemical
- measurement_setup: concentrated aqueous POM polymer solution, pH 7, aqueous with cosolvent or surfactant or cyclodextrin, thermodynamic from solid, concentrated polymers DP=100 containing between 15% and 20% vitamin E; read-out: concentrations of solubilized active ingredient

# compound, solubility
measured = [
    ("CC(=O)N1CCN(c2ccc(OCC3COC(Cn4ccnc4)(c4ccc(Cl)cc4Cl)O3)cc2)CC1 (stereo not shown)", "> 30 mM"),
]
